# system: Platelet-derived growth factor receptor beta (Homo sapiens, UniProt P09619); further: in the data inactive means no Kd found up to 30 µM
# Sequence (P09619 whole entry): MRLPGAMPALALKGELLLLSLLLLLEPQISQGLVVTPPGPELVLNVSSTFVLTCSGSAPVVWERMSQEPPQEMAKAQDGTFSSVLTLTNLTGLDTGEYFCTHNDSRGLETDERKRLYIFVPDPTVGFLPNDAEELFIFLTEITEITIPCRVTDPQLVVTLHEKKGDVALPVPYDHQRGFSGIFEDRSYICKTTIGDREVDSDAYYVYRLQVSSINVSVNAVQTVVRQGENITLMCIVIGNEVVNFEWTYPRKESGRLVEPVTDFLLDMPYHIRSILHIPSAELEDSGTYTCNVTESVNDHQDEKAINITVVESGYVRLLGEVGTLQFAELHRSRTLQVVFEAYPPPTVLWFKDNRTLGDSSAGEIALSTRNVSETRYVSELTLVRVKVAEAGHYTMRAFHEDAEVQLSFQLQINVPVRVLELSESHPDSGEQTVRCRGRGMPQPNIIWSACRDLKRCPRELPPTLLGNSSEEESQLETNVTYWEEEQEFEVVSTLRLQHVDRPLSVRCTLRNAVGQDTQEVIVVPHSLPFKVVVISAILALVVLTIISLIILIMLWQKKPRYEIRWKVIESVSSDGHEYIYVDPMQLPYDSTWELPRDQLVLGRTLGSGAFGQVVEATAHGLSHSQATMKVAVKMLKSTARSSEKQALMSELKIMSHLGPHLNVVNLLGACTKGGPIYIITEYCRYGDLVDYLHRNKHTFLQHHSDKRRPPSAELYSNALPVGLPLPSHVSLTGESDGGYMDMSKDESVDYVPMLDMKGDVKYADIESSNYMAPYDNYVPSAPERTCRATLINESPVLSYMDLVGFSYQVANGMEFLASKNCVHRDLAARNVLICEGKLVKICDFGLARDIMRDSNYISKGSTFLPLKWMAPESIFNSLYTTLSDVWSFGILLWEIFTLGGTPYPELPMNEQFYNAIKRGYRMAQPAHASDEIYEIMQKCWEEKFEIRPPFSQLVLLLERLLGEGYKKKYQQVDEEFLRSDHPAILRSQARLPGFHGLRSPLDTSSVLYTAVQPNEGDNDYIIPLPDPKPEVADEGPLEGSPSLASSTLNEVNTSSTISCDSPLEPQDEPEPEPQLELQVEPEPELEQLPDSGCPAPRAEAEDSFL
Calls of active or inactive are those of the source.
Respond using exactly one of the listed classes: y for active, n for inactive

These recorded examples may help you get a feel for the data.
1) Cc1ccc(S(=O)(=O)Nc2nc3ccccc3nc2Nc2ccc3nsnc3c2)cc1 ... n
2) CN1CC[C@@H](c2c(O)cc(O)c3c(=O)cc(-c4ccccc4Cl)oc23)[C@@H]1CO ... n
3) Cc1cc(-c2cc(O)ccc2Cl)cc2nnc(Nc3ccc(OCCN4CCCC4)cc3)nc12 ... n

input: Called result for CC(=O)Nc1cccc(-n2c(=O)n(C3CC3)c(=O)c3c(Nc4ccc(I)cc4F)n(C)c(=O)c(C)c32)c1
output: n

input: Param item: CNC(=O)CN1CCC(Oc2cc3c(Nc4cccc(Cl)c4F)ncnc3cc2OC)CC1
output: n

input: Param item: COc1cc(CCc2cc(NC(=O)c3ccc(N4C[C@@H](C)N[C@@H](C)C4)cc3)n[nH]2)cc(OC)c1
output: y

input: Param item: COc1ccc(-c2ccc3c(N4CCOC[C@@H]4C)nc(N4CCOC[C@@H]4C)nc3n2)cc1CO
output: n

input: Param item: CNS(=O)(=O)Nc1nccc(Cc2c(C)c3ccc(Oc4ncccn4)cc3oc2=O)c1F
output: n

input: Param item: C=CC(=O)N1CCC(Oc2cc3c(Nc4ccc(Cl)c(Cl)c4F)ncnc3cc2OC)CC1
output: n

input: Param item: COc1cc(N2CCC(N3CCN(C)CC3)CC2)ccc1Nc1ncnc(Nc2ccccc2S(=O)(=O)C(C)C)n1
output: n

input: Param item: Cn1ncc(Cl)c1-c1cc(C(=O)N[C@H](CN)Cc2cccc(F)c2)sc1Cl
output: n

input: Param item: O=c1sn(-c2cccc3ccccc23)c(=O)n1Cc1ccccc1
output: n

input: Param item: CO[C@H]1C[C@@H]2CC[C@@H](C)[C@@](O)(O2)C(=O)C(=O)N2CCCC[C@H]2C(=O)O[C@H]([C@H](C)C[C@@H]2CC[C@@H](OCCO)[C@H](OC)C2)CC(=O)[C@H](C)/C=C(\C)[C@@H](O)[C@@H](OC)C(=O)[C@H](C)C[C@H](C)/C=C/C=C/C=C/1C
output: n

input: Param item: CNC(=O)c1ccc(C)c(-n2c(C)cc(OCc3ccc(F)cc3F)c(Br)c2=O)c1
output: n

input: Param item: CN(C)C(=O)c1cc2cnc(Nc3ccc(N4CCNCC4)cn3)nc2n1C1CCCC1
output: n

Values were extracted from ChEMBL document CHEMBL3991601.
